Entries annotated with measured viability
# experimental.conditions: cell viability/%
Where a SMILES comes first, the peptide text is derived from it. [ ]: non-standard residue; d: D form. The star is where a group is joined. NHCH2CH2OH = OCCN*; For = O=C*
reported.metric: viability (%)

>>> endpoint_result("CC(C)C[C@@H](NC(=O)[C@H](C)NC(=O)[C@H](NC(=O)[C@H](C)NC(=O)CNC(=O)[C@@H](NC=O)C(C)C)[C@H](C)O)C(=O)N[C@H](C(=O)N[C@H](CC(C)C)C(=O)N[C@@H](Cc1c[nH]c2ccccc12)C(=O)N[C@@H](C(=O)N[C@@H](Cc1c[nH]c2ccccc12)C(=O)N[C@H](CC(C)C)C(=O)N[C@@H](Cc1c[nH]c2ccccc12)C(=O)N[C@@H](C(=O)N[C@@H](Cc1c[nH]c2ccccc12)C(=O)NCCO)C(C)C)C(C)C)C(C)C [compound 102] (For-VGA[dT]A[dL]V[dL]W[dV]W[dL]W[dV]W-NHCH2CH2OH)")
100
>>> endpoint_result("CC(C)C[C@@H](NC(=O)[C@H](C)NC(=O)CNC(=O)[C@@H](NC=O)C(C)C)C(=O)N[C@@H](C)C(=O)N[C@@H](C(=O)N[C@H](C(=O)N[C@@H](C(=O)N[C@@H](Cc1c[nH]c2ccccc12)C(=O)N[C@H](CC(C)C)C(=O)N[C@@H](Cc1c[nH]c2ccccc12)C(=O)N[C@H](CC(C)C)C(=O)N[C@@H](Cc1c[nH]c2ccccc12)C(=O)N[C@H](CC(C)C)C(=O)N[C@@H](Cc1c[nH]c2ccccc12)C(=O)NCCO)[C@H](C)O)C(C)C)C(C)C [compound 1819] (For-VGA[dL]A[dV]V[dT]W[dL]W[dL]W[dL]W-NHCH2CH2OH)")
100

###

# experimental.conditions: cell viability/%
Where a SMILES comes first, the peptide text is derived from it. [ ]: non-standard residue; d: D form. The star is where a group is joined. NHCH2CH2OH = OCCN*; For = O=C*
Entries annotated with measured viability
reported.metric: viability (%)

>>> endpoint_result("CC(C)C[C@@H](NC(=O)[C@H](C)NC(=O)CNC(=O)[C@@H](NC=O)C(C)C)C(=O)N[C@@H](C)C(=O)N[C@@H](C(=O)N[C@H](C(=O)N[C@H](CC(C)C)C(=O)N[C@@H](Cc1c[nH]c2ccccc12)C(=O)N[C@@H](C(=O)N[C@@H](Cc1c[nH]c2ccccc12)C(=O)N[C@H](CC(C)C)C(=O)N[C@@H](Cc1c[nH]c2ccccc12)C(=O)N[C@@H](C(=O)N[C@@H](Cc1c[nH]c2ccccc12)C(=O)NCCO)C(C)C)[C@H](C)O)C(C)C)C(C)C [compound 1253] (For-VGA[dL]A[dV]V[dL]W[dT]W[dL]W[dV]W-NHCH2CH2OH)")
58.1
>>> endpoint_result("CC(C)C[C@@H](NC(=O)[C@H](C)NC(=O)CNC(=O)[C@@H](NC=O)C(C)C)C(=O)N[C@@H](C)C(=O)N[C@H](CC(C)C)C(=O)N[C@H](C(=O)N[C@@H](C(=O)N[C@@H](Cc1c[nH]c2ccccc12)C(=O)N[C@H](CC(C)C)C(=O)N[C@@H](Cc1c[nH]c2ccccc12)C(=O)N[C@@H](C(=O)N[C@@H](Cc1c[nH]c2ccccc12)C(=O)N[C@@H](C(=O)N[C@@H](Cc1c[nH]c2ccccc12)C(=O)NCCO)C(C)C)C(C)C)C(C)C)C(C)C [compound 2557] (For-VGA[dL]A[dL]V[dV]W[dL]W[dV]W[dV]W-NHCH2CH2OH)")
31

Source listed as paper PMC7531004.
